tested on: human SMAD7 mRNA; test: Antisense inhibition of human SMAD7 mRNA expression in Hep3B cells by 3-10-3 cEt gapmers, 10,000 nM, electroporation (Example 2); assay type: cell-based; conditions: SMAD7 mRNA, Hep3B cells, electroporation with 10,000 nM antisense oligonucleotide, approximately 24 hours, primer probe set RTS5062, relative to untreated control cells
Strand notation (5' to 3'): a small letter for the sugar, then the base; units joined by * are phosphorothioate-linked, units joined directly phosphodiester-linked; [ ] holds rarer units or linkages, { } end groups; capitals alone tell only the bases. k = constrained ethyl (cEt); [5mC] = 5-methylcytosine; d = 2'-deoxy (DNA)
Classify as follows. Reported % Inhibition greater than or equal to 20%: met. Reported % Inhibition below: not met.

- substance: "829997 (kG*kT*kT*dT*dG*dT*d[5mC]*dT*dT*dA*dG*d[5mC]*dT*kG*kT*kG; antisense) [compound 829997]"
  discrete-label: "met"
- substance: "829902 (antisense k[5mC]*kA*kG*d[5mC]*dA*d[5mC]*dG*dG*dG*d[5mC]*dA*dG*d[5mC]*kT*kG*k[5mC]) [compound 829902]"
  discrete-label: "not met"
- substance: "829831 (kG*kA*k[5mC]*d[5mC]*dG*dA*dT*d[5mC]*d[5mC]*d[5mC]*d[5mC]*dA*dG*kG*k[5mC]*kT; antisense) [compound 829831]"
  discrete-label: "not met"
- substance: "829859 (antisense kT*kT*kT*dT*dG*d[5mC]*dT*d[5mC]*d[5mC]*dG*d[5mC]*dA*d[5mC]*k[5mC]*kT*kT) [compound 829859]"
  discrete-label: "met"
- substance: "829835 (k[5mC]*kA*kG*dT*dG*dT*dG*dA*d[5mC]*d[5mC]*dG*dA*dT*k[5mC]*k[5mC]*k[5mC]; antisense) [compound 829835]"
  discrete-label: "met"

----------
test: Hematology assays after subcutaneous administration in beagle dogs (Example 8); type: in vivo; conditions: 30 mg/kg subcutaneous days 1, 3, 5, 8, 15, 22, 29
property-measured: Eosinophils

- substance: "830025 (antisense TTTGTAAATCGAAAGC; 3-10-3 cEt gapmer, further chemistry not given here) [compound 830025]"
  reported-result: "2.4%"
- substance: "798781 (CGTAAGATTCACAGCA; 3-10-3 cEt gapmer, further chemistry not given here) [compound 798781]"
  reported-result: "2.7%"
- substance: "830121 (AGAATCAAGCCCTGGC; 3-10-3 cEt gapmer, further chemistry not given here) [compound 830121]"
  reported-result: "2.5%"
- substance: "829994 (GGAGGCAGGGCCGCGA; 3-10-3 cEt gapmer, further chemistry not given here) [compound 829994]"
  reported-result: "1.8%"
- substance: "790615 (CCAATGAGAATGCTTC; 3-10-3 cEt gapmer, further chemistry not given here) [compound 790615]"
  reported-result: "2.6%"
- substance: "830037 (antisense CTATTGGCTGATCTGG; 3-10-3 cEt gapmer, further chemistry not given here) [compound 830037]"
  reported-result: "2.6%"

----------
tested on: human SMAD7 mRNA; test: Antisense inhibition of human SMAD7 mRNA expression in Hep3B cells by 3-10-3 cEt gapmers, 10,000 nM, electroporation (Example 2); type: cell-based; details: SMAD7 mRNA, Hep3B cells, electroporation with 10,000 nM antisense oligonucleotide, approximately 24 hours, primer probe set RTS5062, relative to untreated control cells
Strand notation (5' to 3'): a small letter for the sugar, then the base; units joined by * are phosphorothioate-linked, units joined directly phosphodiester-linked; [ ] holds rarer units or linkages, { } end groups; capitals alone tell only the bases. k = constrained ethyl (cEt); [5mC] = 5-methylcytosine; d = 2'-deoxy (DNA)
Overview of recorded % Inhibition for various substances

- substance: "829977 (kT*kA*kG*d[5mC]*dT*dG*dT*d[5mC]*dA*dG*dA*dT*dA*kA*kA*k[5mC]; antisense) [compound 829977]"
  % Inhibition / %: 35
- substance: "829899 (antisense kA*k[5mC]*kG*dG*dG*d[5mC]*dA*dG*d[5mC]*dT*dG*d[5mC]*dT*kG*kA*kT) [compound 829899]"
  % Inhibition / %: 20
- substance: "829968 (kA*kA*k[5mC]*d[5mC]*d[5mC]*d[5mC]*d[5mC]*dA*dG*dG*dG*dA*dA*kT*kG*k[5mC]; antisense) [compound 829968]"
  % Inhibition / %: 30
- substance: "829829 (kT*k[5mC]*kT*dG*dA*dA*dA*dG*d[5mC]*d[5mC]*d[5mC]*d[5mC]*d[5mC]*k[5mC]*kA*kG; antisense) [compound 829829]"
  % Inhibition / %: 11
- substance: "829874 (antisense kG*kT*kT*dG*dT*d[5mC]*d[5mC]*dA*dG*dT*dG*dT*dG*kG*k[5mC]*kG) [compound 829874]"
  % Inhibition / %: 43
- substance: "829953 (kG*kT*k[5mC]*dA*d[5mC]*d[5mC]*d[5mC]*dG*dT*d[5mC]*dT*dG*dG*kG*k[5mC]*kT; antisense) [compound 829953]"
  % Inhibition / %: 34
- substance: "829938 (kA*kT*kT*d[5mC]*dA*dG*d[5mC]*dT*dA*dG*dG*dT*dG*kA*kT*kA; antisense) [compound 829938]"
  % Inhibition / %: 17
- substance: "829985 (kG*kA*kG*dG*d[5mC]*dG*dG*dT*dG*dA*dT*dT*dG*k[5mC]*k[5mC]*kT; antisense) [compound 829985]"
  % Inhibition / %: 16
